Listed here are molecules together with their documented cytotoxicity at 70.5 h.
test: Human HepG2 cell viability assay in 384 well format; assay type: toxicity, cell-based; set-up: dose 125 nL, time 70.5 hour; concentration not given beside the values; details: HepG2 cells, read-out: Inhibition
Value expressed in %; do not type the unit.

Worked cases, cytotoxicity at 70.5 h given:
Cn1c(CN2CCN(CC3CC3)CC2)nnc1C1CCC1 | 20.3
CC(CCN1CCn2nc(CNC(=O)N(C)C)cc2C1)c1ccccc1 (stereo not drawn) | -6.81

Given Cc1nc(CC(=O)N2CCN(C)CC2c2ccccc2)cs1 (stereo not drawn) , state its recorded cytotoxicity at 70.5 h. -0.955

Could you share which cytotoxicity at 70.5 h value was measured for CCC[C@]12CN3C[C@](C)(CN(C1)C3c1[nH]c(=O)[nH]c(=O)c1C)C2=O (stereo partly drawn) ? -9.33

Can you look up the measured cytotoxicity at 70.5 h of COc1ccc(F)cc1C(=O)Nc1nnc(C)s1 for me? 6.71

Look at this molecule and give its reported cytotoxicity at 70.5 h. CCC(=O)N1CCCN(Cn2nc(C)c(Br)c2C)CC1 -0.667

What cytotoxicity at 70.5 h value was documented for this molecule, NC(=O)c1ccc(OCCC(=O)NC2CCc3c(F)cccc32)cc1 (stereo not drawn) ? 21.4

GET /values?readout=cytotoxicity at 70.5 h&item= Cc1nccn1-c1ccc(C(C)NCc2cccn2C)cc1 (stereo not drawn) -4.2

What value of cytotoxicity at 70.5 h has been reported for the following molecule? O=C1[C@H]2CN(Cc3ccc(F)cc3)C[C@H]2CN1c1cncnc1 0.584

May I ask what cytotoxicity at 70.5 h has been recorded for COCCC1COC2(CCN(C(=O)C3CCCCC3)CC2)C1 (stereo not drawn) ? -5.85

----------
# cytotoxicity at 70.5 h per record follows
test: Human HepG2 cell viability assay in 384 well format; type: toxicity, cell-based; set-up: dose 125 nL, time 70.5 hour; concentration not given beside the values; conditions: HepG2 cells, read-out: Inhibition

Worked examples follow.
COC(=O)CNC(=O)c1cc(-c2ccccc2)nc2ncnn12 | -0.256%
Cn1nccc1C(=O)N1C[C@@H]2CN(S(C)(=O)=O)CCO[C@@H]2C1 | -3.72%

# get_value(readout='cytotoxicity at 70.5 h', item= CN(C)CCNC(=O)CCn1ncc2c(Cl)cccc21 ) -4.46%

Entry CCn1cnnc1CNC(=O)Cc1ccc2c(c1)OCCO2 has what cytotoxicity at 70.5 h? -14.5%

Name the recorded cytotoxicity at 70.5 h for Cc1cccc(=O)n1CCC(=O)N(C)Cc1cccc2ncccc12 . -15.2%

Item Cc1nn(CC(=O)N2CCC(Nc3cccnn3)CC2)c(C)c1Cl has what recorded cytotoxicity at 70.5 h? 28.5%

----------
assay: Human HepG2 cell viability assay in 384 well format; type: toxicity, cell-based; design: dose 125 nL, time 70.5 hour; concentration not given beside the values; conditions: HepG2 cells, read-out: Inhibition
value_type: cytotoxicity at 70.5 h (%)
Your answer is read as %, so omit the unit and give the number.

Reference set, count: 10
CCCN1C(=O)CC2(CCCNC2)C1=O (stereo unspecified) | -14.9
CN1CCCN(C(=O)c2cc3c(s2)CCN3C(=O)c2ccccc2)CC1 | -1.37
COc1ncccc1NC(=O)C1CC(=O)N(Cc2ccccn2)C1 (stereo unspecified) | 0.729
O=C1CC(c2ccc(C(=O)O)cc2)c2ncn(-c3ccccc3Cl)c2N1 (stereo unspecified) | -12.6
Cn1nc(C(=O)NC2CC(C)(C)NC(C)(C)C2)cc1NC(=O)C1CC1 | -8.61
O=C(CCc1nccs1)N1CCC(C(=O)O)(c2ccccc2)CC1 | -0.696
CC(C)=CCN1CC2(CCN(Cc3cccc(C#N)c3)CC2)CC1=O | 8.66
Cc1nc(-c2ccco2)ccc1C(=O)N1CCCC1Cn1cccn1 (stereo unspecified) | 7.82
CCCc1cc(N2CCCCC2Cn2cc(C)cn2)n2ncnc2n1 (stereo unspecified) | -6.83
CN1CCC(N2CCN(C(C(=O)O)c3cccc4c3OCC4)CC2)CC1 (stereo unspecified) | 2.04

Let's switch to this compound now.
Look up cytotoxicity at 70.5 h: CCCc1noc(CN2CCN(CCC(C)C)CC2)n1 -2.49

----------
test: Human HepG2 cell viability assay in 384 well format; assay type: toxicity, cell-based; set-up: dose 125 nL, time 70.5 hour; concentration not given beside the values; conditions: HepG2 cells, read-out: Inhibition
value_type: cytotoxicity at 70.5 h (%)
The reply should be a number in %, with the unit left off.

Worked cases, cytotoxicity at 70.5 h given:
Cc1noc(CCCNC(=O)N2CCc3ccccc3C2CO)n1 (centres undefined) | 14.9
CC(C)COC(=O)N1CCCN(C(C)c2nnc(CC(C)C)o2)CC1 (centres undefined) | -3.09

Give the measured cytotoxicity at 70.5 h of CC(C)(C)n1nc(C(=O)NC2CCN(CC(N)=O)CC2)cc1C1CC1 . -11.7

// cytotoxicity at 70.5 h lookup, key: CSc1ccc(CNC(c2ccccc2)c2nccn2C)cc1 (centres undefined) -1.21

Any idea what its cytotoxicity at 70.5 h is? The compound is CCN1C(=O)C2(CCCCC2)NC1c1cc(C#N)n(C)c1C (centres undefined) -8.35

cytotoxicity at 70.5 h for COCc1cn(C2CCN(C(=O)Cc3ccsc3)CC2)nn1 ? -9.06

Look up cytotoxicity at 70.5 h for this compound: CC(=O)NC[C@H]1COCc2nc3c(C)cccc3n21 10.8

# cytotoxicity at 70.5 h lookup, item COCc1nc(CNC2CCSCC2)no1 -8.13

Would you kindly share the measured cytotoxicity at 70.5 h for COc1cc(N2CCC3(CCCN(C(=O)c4cccnc4)C3)C2)ncn1 (centres undefined) ? 16.7

----------
assay: Human HepG2 cell viability assay in 384 well format; assay type: toxicity, cell-based; parameters: dose 125 nL, time 70.5 hour; concentration not given beside the values; conditions: HepG2 cells, read-out: Inhibition
value_type: cytotoxicity at 70.5 h (%)
I only need the number, in %, no unit after it.

Cc1cc(N(C)C)nc(N2CCn3c(C)nnc3C2)n1 | -17.7

Entry Cc1noc(CN2CC=C(c3cnn(C4CCS(=O)(=O)C4)c3)CC2)n1 (stereo not drawn) has what cytotoxicity at 70.5 h? 27.9

Any idea what cytotoxicity at 70.5 h was measured for CCC(=O)N1CCc2[nH]cnc2C12CCN(C(=O)CCS(C)(=O)=O)CC2 ? -1.4

Can you look up the measured cytotoxicity at 70.5 h of CCNC(=O)N1C[C@@H]2OCC(=O)N(Cc3cccnc3)[C@@H]2C1 for me? -1.41

Tell me the measured cytotoxicity at 70.5 h of Cn1nnc2c1C(COCC1CC1)CN(C(=O)[C@H]1CCCO1)C2 (stereo partly drawn) , please. 0

What does the record list as cytotoxicity at 70.5 h for O=C1N(Cc2ccc(F)c(F)c2)CCCC1(O)CNCc1ccccn1 (stereo not drawn) ? -4.31

Requested field: cytotoxicity at 70.5 h. Item: Cc1nccn1-c1cc(CNC(=O)C(C)(C)C)ccn1 -4.88

// lookup cytotoxicity at 70.5 h for CN(CC(O)C1CC1)C(=O)Nc1cc(F)cc(Br)c1 (stereo not drawn) 26.3

Requested field: cytotoxicity at 70.5 h. Item: CNC(=O)[C@@]12CCCN(c3ncccn3)[C@@H]1CN(c1ncc(F)cn1)C2 -0.144

Record request: cytotoxicity at 70.5 h value, item CCn1nnc2c1C(COCCN(C)C)CN(Cc1ccco1)C2 (stereo not drawn) 11.5

Can you look up the measured cytotoxicity at 70.5 h of CCc1csc(C2CCCN(C(=O)c3cc(Cl)c[nH]3)C2)n1 (stereo not drawn) for me? 2.15

Field request: cytotoxicity at 70.5 h | item: CCOCCCNC(=O)C1(C)CCC(=O)N1c1ccccc1OC (stereo not drawn) -8.49

----------
assay: Human HepG2 cell viability assay in 384 well format; format: toxicity, cell-based; set-up: dose 125 nL, time 70.5 hour; concentration not given beside the values; conditions: HepG2 cells, read-out: Inhibition
Measured cytotoxicity at 70.5 h values are reported for all entries that follow.
Number only, in %; omit the unit.

Cc1cc(CCC(=O)N2CC[C@H](O)C2)ccc1Br | 1.1
Cc1ccc(-c2nc(CNC3CCc4ncnn4C3)no2)cc1 (stereo unspecified) | -1.3

# input for lookup
// cytotoxicity at 70.5 h lookup, key: Cn1nc(CN2CCCCC(N)C2)c2c(Cl)cccc21 (stereo unspecified) 36.9

----------
cytotoxicity at 70.5 h for assorted compounds
assay: Human HepG2 cell viability assay in 384 well format; type: toxicity, cell-based; design: dose 125 nL, time 70.5 hour; concentration not given beside the values; settings: HepG2 cells, read-out: Inhibition
Answer with a number only, understood to be in %.

Cc1nc(CN2C[C@@H]3CN(C(=O)c4ccoc4C)C[C@@H]3C2)cs1 | 28.2

What value of cytotoxicity at 70.5 h has been reported for the following compound? Cc1cc(C)c(CNC(=O)NCc2ccc3c(c2)OCCO3)c(=O)[nH]1 0.304

Value lookup for cytotoxicity at 70.5 h; key = CC(=O)N1N=C(c2ccccc2)OC1C(=O)NCCc1ccc(O)cc1 (stereo not drawn) -1.25

These entries and their values trace back to ChEMBL document CHEMBL3507680.
